Source listed as patent US20240400560A1.

System: SARS-CoV-2
Assay: Inhibitory activity of cytopathic effect (CPE) in HEK293T/ACE2-TMPRSS2 cells
Type: cell-based
Conditions: Severe acute respiratory syndrome coronavirus 2, HEK-293T, 72 h; HEK293T/ACE2-TMPRSS2 cells, cultured 3 days, CellTiter-Glo 2.0 luminescence; read-out: EC50 (50% SARS-CoV-2 infected cell death inhibitory concentration)
property.label: EC50

- molecule: "[2H]C([2H])([2H])n1cnc(Cn2c(=O)c3c(OC)nc(N4CC[C@@H](F)C4)cc3n(Cc3cc(F)c(F)c(F)c3)c2=O)n1 [Compound I-0917]"
  EC50: "< 100 nM"
- molecule: "COc1nc(N2CC[C@@H](OC)C2)cc2c1c(=O)n(-c1cnc3cc(F)ccn13)c(=O)n2-c1ccc(F)c(Cl)c1 [Compound I-0740]"
  EC50: "< 100 nM"
- molecule: "COc1nc(NC2CCC2)cc2c1c(=O)n(-c1cnc3cc(F)ccn13)c(=O)n2-c1ccc(F)c(Cl)c1 [Compound I-1053]"
  EC50: "< 100 nM"
- molecule: "COc1nc(N2CC[C@@H](CO)C2)cc2c1c(=O)n(-c1cncc(Cl)c1)c(=O)n2-c1ccc(F)c(Cl)c1 [Compound I-0969]"
  EC50: "< 100 nM"
- molecule: "COc1nc(N2CCC(O)(C(F)(F)F)C2)cc2c1c(=O)n(-c1cncc(Cl)c1)c(=O)n2-c1ccc(F)c(Cl)c1 (stereo not shown) [Compound I-1064]"
  EC50: "< 100 nM"

Prompt line: // fetch EC50; item: COc1nc(N2CC[C@@H](C#N)C2)cc2c1c(=O)n(-c1cnc3cc(F)ccn13)c(=O)n2-c1ccc(F)c(F)c1 [Compound I-0959] ; system: SARS-CoV-2
Response line: < 100 nM

Prompt line: // fetch EC50; item: COc1nc2c(=O)n(Cc3ncn(C)n3)c(=O)n(Cc3cc(F)c(F)c(Cl)c3)c2cc1-c1nc(C(=O)NC2(C)COC2)ccc1Cl [Compound I-0886] ; system: SARS-CoV-2
Response line: < 100 nM

Prompt line: // fetch EC50; item: COc1nc2c(=O)n(Cc3ncn(C)n3)c(=O)n(Cc3cc(F)c(F)c(Cl)c3)c2cc1-c1nc(C#N)ccc1Cl [Compound I-0819] ; system: SARS-CoV-2
Response line: < 100 nM

Prompt line: // fetch EC50; item: COc1cc(-c2cc(C#N)ccc2Cl)cc2c1c(=O)n(Cc1ncn(C)n1)c(=O)n2[C@H](C)c1cc(F)c(F)c(F)c1 [Compound I-0595] ; system: SARS-CoV-2
Response line: < 100 nM

Prompt line: // fetch EC50; item: Cn1cnc(Cn2c(=O)c3c4nccnc4c(-c4cc(C(C)(C)O)c(F)cc4Cl)cc3n(Cc3cc(F)c(F)c(Cl)c3)c2=O)n1 [Compound I-0815] ; system: SARS-CoV-2
Response line: < 100 nM

Prompt line: // fetch EC50; item: COc1nc(N2CCOC[C@H]2C)cc2c1c(=O)n(-c1cnc3cc(F)ccn13)c(=O)n2-c1ccc(F)c(Cl)c1 [Compound I-1054] ; system: SARS-CoV-2
Response line: < 100 nM

Prompt line: // fetch EC50; item: COc1cc(-n2c(=O)n(Cc3ncn(C)n3)c(=O)c3c(OC)nc(N4CC[C@@H](F)C4)cc32)cc(Cl)c1F [Compound I-0804] ; system: SARS-CoV-2
Response line: < 100 nM

Prompt line: // fetch EC50; item: COc1nc(N2CCC(O)(CF)C2)cc2c1c(=O)n(-c1cnc3cc(F)ccn13)c(=O)n2-c1ccc(F)c(Cl)c1 (stereo not shown) [Compound I-1037] ; system: SARS-CoV-2
Response line: < 100 nM
